Data credit: ChEMBL document CHEMBL1275274

- system: Renin (Homo sapiens, UniProt P00797)
- Sequence (P00797 whole entry): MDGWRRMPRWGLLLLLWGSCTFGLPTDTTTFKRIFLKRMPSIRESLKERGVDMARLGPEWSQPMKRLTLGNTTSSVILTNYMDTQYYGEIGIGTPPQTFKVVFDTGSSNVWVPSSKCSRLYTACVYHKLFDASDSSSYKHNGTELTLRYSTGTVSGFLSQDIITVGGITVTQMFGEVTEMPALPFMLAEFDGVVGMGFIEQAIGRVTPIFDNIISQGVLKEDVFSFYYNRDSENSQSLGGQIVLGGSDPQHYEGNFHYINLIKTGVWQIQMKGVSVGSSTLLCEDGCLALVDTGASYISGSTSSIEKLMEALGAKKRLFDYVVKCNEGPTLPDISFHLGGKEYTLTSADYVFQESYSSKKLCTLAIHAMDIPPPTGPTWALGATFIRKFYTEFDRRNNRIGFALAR
- Format: cell-free, Plasma
pIC50: −log10 of the molar value.
outcome measure: pIC50

The recorded pIC50 with Renin (Homo sapiens, UniProt P00797) for Cc1cc(Cl)c(OCCOc2ccc(C3=C(C(=O)N(Cc4cccc(C)c4C)C4CC4)[C@H]4CNC[C@@H](C3)N4)cc2)c(Cl)c1 was 7.72

A: CNC[C@H](CC1CCCCC1)NC(=O)N1CCC[C@@H]([C@@H](OCCNC(=O)OC)c2cccc(Cl)c2)C1
B: COc1ccccc1COCCCOc1ccc(C2=C(C(=O)N(Cc3ccnc(OC)c3C)C3CC3)[C@H]3CNC[C@@H](C2)N3)cc1
Exam item: Recorded pIC50 values differ for A and B ; which one is higher? Could you answer with the label of the item you picked?
Marked response: A

* * *

- system: UniProt P00797
- assay summary: Inhibition of renin in pH 7.4 buffer
outcome measure: IC50 (nM)
API: value field is a number in nM; no unit string.

Value of IC50 reported for the compound CCC(C)C[C@H](NC(=O)[C@@H](NC[C@@H](O)[C@@H](N)CCCc1ccc(-c2ccccc2)cc1)C(C)C)C(=O)NCCCc1ccccc1 (stereo partly specified) is 4

* * *

- assay summary: Oral bioavailability in monkey
- Assay type: ADME, organism-based, Macaca mulatta
- measurement setup: rhesus monkey, in vivo
outcome measure: bioavailability (%)
API: value field is a number in %; no unit string.

Value of bioavailability reported for the molecule O=C(C1=C(c2ccc(CCCOc3c(F)ccc(F)c3Cl)cc2)C[C@@H]2CNC[C@H]1N2)N(Cc1cccc(Cl)c1Cl)C1CC1 is 9

* * *

- system: Renin (Homo sapiens)
- assay summary: Inhibition of human recombinant renin in buffer
outcome measure: IC50 (nM)

A: COCCCN1C(=O)COC2C=CC(OC[C@H]3CNCC(=O)N3c3ccc(OCCCOCc4ccccc4OC)cc3)=CC21 (stereo partly drawn)
B: CC[C@H]1CC[C@](O)(CCc2ccccc2)C[C@@H]1C(=O)N[C@@H](CC1CCCCC1)[C@@H](O)[C@@H](O)CC(C)C
C: Brc1ccc([C@H]2CCNC[C@@H]2OCc2ccc3ccccc3c2)cc1
Exam item: I'd appreciate it if you sorted the entries above by their IC50, lowest to highest. Please write the labels in the order that was asked for.
Marked response: A, B, C

P: COc1ccccc1COCCCOc1ccc(C2=C(C(=O)N(Cc3cccc(OC)c3C)C3CC3)[C@H]3CNC[C@@H](C2)N3)cc1
Q: COc1cccc(OCCCc2cccnc2)c1C(=O)N[C@@H](CC1CCCCC1)[C@@H](O)[C@@H](O)CC(C)C
R: COCCCN1C(=O)COC2C=CC(SC[C@H]3CNCC(=O)N3c3ccc(OCCCOCc4ccccc4OC)cc3)=CC21 (stereo partly drawn)
Exam item: Rank the 3 molecules: largest IC50 first, smallest last. Please write the labels in the order that was asked for.
Marked response: Q, P, R
(Q: 39 nM, P: 0.62 nM, R: 0.18 nM)

A: CC(C)C[C@H](O)[C@H](O)[C@H](CC1CCCCC1)NC(=O)[C@H](Cc1cnc[nH]1)NC(=O)C[C@H](C)c1ccccc1
B: COc1ccccc1COCCCOc1ccc([C@@H]2[C@@H](OCc3cc(OC)c4ccccc4c3)CNC[C@H]2OC[C@H](O)CO)cc1
C: COc1ccccc1COCCCOc1ccc(N2CCNC[C@@H]2COC2=CC3C(C=C2)CCCN3CCNC(C)=O)cc1 (stereo partly drawn)
Exam item: Rank the 3 molecules: largest IC50 first, smallest last. Please write the labels in the order that was asked for.
Marked response: A, C, B
(A: 11 nM, C: 0.5 nM, B: 0.06 nM)
